Provide the reported melting point of each item.

Which melting point value belongs to `CCOCc1nc2c(N)nc3cc(OCCCCCCNC(=S)NC(C)C)ccc3c2n1CC(C)(C)NC(C)=O` ?
110 to 120 °C

Next up: CC1(C)CC(c2ncccn2)c2cc(C#N)ccc2O1 (centres undefined)
109 to 111 °C

Next up: OC(c1ccccc1)(c1ncc[nH]1)c1ccccc1Cl (centres undefined)
186 to 188 °C

Next up: O=C1OCCC1Nc1ccc(Nc2ccccc2)cc1 (centres undefined)
142 to 143 °C

Next up: Nc1ccc2c(c1)-c1ccccc1S2=O (centres undefined)
169 to 172 °C

Next up: CCCOC(=O)C(C)NC(=O)C(CC(=O)O)NC(=O)C1CCCN1 (centres undefined)
233 to 235 °C

Next up: `C#CCC(=NO)C1=CCCN(C)C1`
55 to 57 °C

Next up: CC(C#N)c1ccc2oc(=S)[nH]c2c1 (centres undefined)
173 to 176 °C

Next up: `CCNC(=S)N1CCc2[nH]cnc2C1`
185 °C

Next up: `Cn1c(-c2ccc(Cl)cc2)c(C#N)c(Br)c1C(F)(F)F`
126 to 129 °C

Next up: `O=C(NCSc1ncnc2nc[nH]c12)c1ccccc1`
197 to 200 °C

Next up: `Fc1ccccc1CC[C@H]1CNCCN1`
94 to 99 °C

Next up: CC(=O)OC1CSC(Oc2ccc(-c3ccc(CO)cc3)nc2)C(OC(C)=O)C1OC(C)=O (centres undefined)
157 °C

Next up: `Cc1nc(-c2cc(C)c(OCCCc3cnc(C)s3)c(C)c2)no1`
60 to 62 °C

Next up: `Cn1c(=O)n(CC(=O)O)c(=O)c2cc([N+](=O)[O-])ccc21`
217 to 220 °C

Next up: O=C(NCc1c(Cl)cccc1Oc1ccccc1)C1CCc2[nH]cnc2C1 (centres undefined)
197 to 199 °C

Next up: CCOC(=O)C(CC)Nc1ccc2ccccc2c1 (centres undefined)
81 to 83 °C

Next up: `O=C1c2cccc([N+](=O)[O-])c2C(=O)N1CCO`
93 °C

Next up: `CC(=O)Nc1cccc(OCc2ccccc2)c1CCOC(C)=O`
118 to 119 °C

Next up: COc1cc(OC)cc(C(C)CCCc2ccncc2)c1 (centres undefined)
131 to 133 °C

Next up: `O=[N+]([O-])c1ccc(OC(F)(F)c2ccccc2)cc1`
46 to 48 °C

Next up: `CN(C)CCc1cn(S(=O)(=O)c2ccccc2)c2ccc(O)cc12`
185 to 188 °C

Next up: O=C(C=Cc1c(Cl)ccc(Cl)c1Cl)c1ccc(OC2CCCCO2)cc1 (centres undefined)
101 to 104 °C

Next up: `CC(=O)N1CCc2cc(-c3ccc4c(c3)CC[C@H]3N(C)C(=O)CC[C@]43C)ccc21`
197 to 200 °C

Next up: `Cc1ccccc1C(=O)Nc1ccc(C(=O)N2CCCCc3sccc32)cc1`
181 to 182 °C

Next up: `O=C(NC1CCN(CCCOc2ccccc2C(=O)Nc2nnn[nH]2)CC1)c1ccccc1`
259 to 260 °C

Next up: `CCc1c(C(F)(F)F)noc1NS(=O)(=O)c1ccccc1`
105 to 106 °C

Next up: `O=c1c2ncn3c2n(c(=O)n1Cc1ccccc1)CC=C3c1cccc(C(F)(F)F)c1`
198 to 200 °C

Next up: `CCCc1c(OCCCCCCc2ccc(CCCCC(=O)O)cc2CCC(=O)O)ccc2c1OCCC2=O`
108 to 109 °C

Next up: `COC(=O)[C@H]1C=C(c2ccccc2)OC(=O)[C@H]1Cc1ccccc1`
105 to 106 °C

Next up: `NS(=O)(=O)c1ccc(-n2nccc2-c2ccc(Cl)cc2)cc1`
185 to 187 °C

Next up: `O=C(O)Cc1ccc2c(c1)NC(=O)CO2`
237 to 239 °C

Next up: `Cc1ccc(O)c(C)c1N(C)C`
162 to 165 °C

Next up: `O=C(NCc1ccccc1Cl)c1cccnc1Oc1cccc(F)c1`
115 to 117 °C
